# System: SN12C
# experimentDescription: NCI60 five-dose screen
# Type: cell-based
# reportedConditions: Homo sapiens, renal cancer, read-out: LC50 (the source's name)
measureName: CC50 (µM)
Numbers only, in µM.

These recorded examples may help you get a feel for the data.
- molecule: "O=C(N/N=C/c1cc(Br)c(Br)[nH]1)c1[nH]c2ccc(Br)cc2c1-c1ccccc1 [Derivative 3f]"
  target: "SN12C"
  measureUnit: "µM"
  reading: 30.7
- molecule: "CCc1ccc(/C=N/NC(=O)c2[nH]c3ccc(Br)cc3c2-c2ccccc2)[nH]1 [Derivative 3s]"
  target: "SN12C"
  measureUnit: "µM"
  reading: 30.3
- molecule: "O=C(N/N=C/c1[nH]ccc1Cl)c1[nH]c2ccc(Br)cc2c1-c1ccccc1 [Derivative 3g]"
  target: "SN12C"
  measureUnit: "µM"
  reading: 29.2
- molecule: "CCc1cc[nH]c1/C=N/NC(=O)c1[nH]c2ccc(Br)cc2c1-c1ccccc1 [Derivative 3u]"
  target: "SN12C"
  measureUnit: "µM"
  reading: 34
- molecule: "O=C(N/N=C/c1cc[nH]c1)c1[nH]c2ccc(Br)cc2c1-c1ccccc1 [Derivative 3b]"
  target: "SN12C"
  measureUnit: "µM"
  reading: 37.7

# batch: return CC50 for each of the 2 molecules below
1. O=C(N/N=C/c1ccc(C(=O)N2CCOCC2)[nH]1)c1[nH]c2ccc(Br)cc2c1-c1ccccc1 [Derivative 3n]
2. O=C(N/N=C/c1ccc([N+](=O)[O-])[nH]1)c1[nH]c2ccc(Br)cc2c1-c1ccccc1 [Derivative 3p]

Ans.
1: 79.7; 2: 36.7
